# experimental-protocol: Growth inhibition of human SW620 cells incubated for 48 hrs by sulforhodamine B assay
# Assay type: functional
# applied-conditions: SW-620, 48 h
quantity-name: GI50 (µM)
Kindly answer with a numeric value in µM, unit omitted.

>>> recorded_result("CC(C)[C@@]12C[C@@H](NC(=O)CO)[C@@](C)(O1)[C@@H]1CC[C@@H](C)[C@H]1[C@@H]2OC(=O)/C=C/c1ccccc1")
22.4
>>> recorded_result("CC(C)[C@@]12C[C@@H](NC(=O)CO)[C@@](C)(O1)[C@@H]1CC[C@@H](C)[C@H]1[C@@H]2OC(=O)c1ccc2ccccc2c1")
16.6

Read the next record carefully.
# molecule C/C(=C\C(=O)O[C@H]1[C@@H]2[C@H](C)CC[C@H]2[C@]2(C)O[C@@]1(C(C)C)C[C@H]2NC(=O)CO)c1ccccc1 ; its GI50 = 45.7
